Every entry's value here was drawn from paper PMC9499365.

tested on: HeLa cells (cervical cancer); assay: MTT antiproliferative assay, HeLa; type: cell-based, human; settings: Homo sapiens, 72 h
pIC50: −log10 of the molar value.
property: pIC50

CCOC(=O)[C@H]1c2c(C)cccc2C2CC[C@]3(O)C[C@@]21C[C@]3(O)CN[C@H](C)c1cccc2ccccc12 (some centres unmarked) :: 5.33
CCOC(=O)[C@H]1c2c(C)cccc2[C@H]2CC[C@]3(O)C[C@@]21C[C@]3(O)CN[C@@H](C)c1cccc2ccccc12 :: 5.36

###

property: melting point

Qu. Please report the recorded melting point for CCOC(=O)[C@H]1c2c(C)cccc2[C@H]2CC[C@]3(O)C[C@@]21C[C@]3(O)CN[C@@H](C)c1ccc(F)cc1 [Compound 10] .
Ans. 84 to 86 °C

Qu. For the molecule shown here, CCOC(=O)[C@@H]1c2c(C)cccc2C2CC[C@]3(O)C[C@@]21C[C@]3(O)CN[C@@H](C)c1ccc2ccccc2c1 (stereo partly shown) [Compound 35] , give the reported melting point.
Ans. 56 to 59 °C

Qu. // returns reported melting point for input CCOC(=O)[C@H]1c2c(C)cccc2[C@H]2CC[C@]3(O)C[C@@]21C[C@]3(O)Cn1ccnc1 [Compound 26]
Ans. 101 to 103 °C

Qu. melting point for CCOC(=O)[C@@H]1c2c(C)cccc2C2CC[C@]3(O)C[C@@]21C[C@]3(O)CNCc1cccc2ccccc12 (stereo partly shown) [Compound 38] ?
Ans. 61 to 65 °C

Qu. Param item = CCOC(=O)[C@H]1c2c(C)cccc2[C@H]2CC[C@]3(O)C[C@@]21C[C@]3(O)CNCc1cn(Cc2ccccc2)nn1 [Compound 31] ; retrieve measured melting point.
Ans. 122 to 123 °C

Qu. Endpoint output: melting point of CCOC(=O)[C@H]1c2c(C)cccc2[C@H]2CC[C@]3(O)C[C@@]21C[C@]3(O)CNC(C)C [Compound 19] . Value?
Ans. 102 to 103 °C

Qu. Reported melting point, molecule CCOC(=O)[C@H]1c2c(C)cccc2[C@H]2CC[C@]3(O)C[C@@]21C[C@]3(O)Cn1cncn1 [Compound 28] : ____
Ans. 87 to 89 °C
